Where do the numbers come from? From BindingDB's records for doi:10.1021/jm981129a.

measurementTarget: Nitric oxide synthase, brain (Sus scrofa)
protocolText: Inhibitory activity against Nitric oxide synthase (derived from porcine brain cerebellum)
endpointName: IC50 (µM)
Write it as a number; the unit µM goes unstated.

Req: Which IC50 is reported for this compound? Nc1nc(N)c2nc(COc3ccccc3)cnc2n1
Resp: 180
